Assay: solvent given as SMILES
Details: in CCCCCC
Quick list: absorption maximum per entry.
Write the number in nm without appending the unit.

Examples from the recorded data:
CCC1=C(C)C2=C(c3c4ccccc4c(C)c4ccccc34)c3c(C)c(CC)c(C)n3[B-](F)(F)[N+]2=C1C
529
CCSSCC
250
Cc1ccc2ccc3cccc4ccc1c2c34
338
O=S(=O)(c1ccc(-c2ccc(-c3nc4c5ccccc5c5ccccc5c4n3-c3ccccc3)cc2)cc1)c1ccc(-c2ccc(-c3nc4c5ccccc5c5ccccc5c4n3-c3ccccc3)cc2)cc1
368
Cc1ccc2ccc3c(C)ccc4ccc1c2c43
344
COc1ccc(N(c2ccc(OC)cc2)c2ccc(-c3ccc4c(c3)C(=O)c3ccccc3C4=O)cc2)cc1
468

Lab note: `c1ccc2c(c1)[nH]c1ncccc12` gave absorption maximum of 336

Reported absorption maximum of `CCN(CC)c1ccc2cc(-c3ccc(S(C)(=O)=O)cc3)oc(=O)c2c1` : 373

The reported absorption maximum of the molecule `CCCCCCCCC1(CCCCCCCC)c2cc(-c3ccc(C(F)(F)F)cc3)ccc2-c2ccc(N(c3ccc(-n4c5ccccc5c5ccccc54)cc3)c3ccc4c(c3)C(CCCCCCCC)(CCCCCCCC)c3cc(-c5ccc(C(F)(F)F)cc5)ccc3-4)cc21` was 380

###

Experiment: solvent given as SMILES
Details: in CS(C)=O
READOUT: absorption maximum (nm)
Answer format: numeric, nm implied, no suffix.

See these solved cases before continuing.
CCOC(=O)C1=C(N)n2c(=O)c3ccccc3c(=O)n2C1c1ccc(C)cc1 (stereo not given)
365
Cc1ccc(-c2cc3ccccc3oc2=O)cc1
330
COc1ccc(-c2c3nc(cc4ccc([nH]4)c(-c4ccc(OC)c(OCCCC(=O)O)c4)c4nc(cc5ccc2[nH]5)CC4)C=C3)cc1OCCCC(=O)O
644
COc1cnc(-c2cc[n+](C3=C(F)C(F)(F)C(F)(F)[C-]3F)cc2)s1
410
O=C1C=Cc2cc3ccccc3c(=O)n21
357

Consider `CN1/C(=C/C=C/C2=[N+](C)c3ccccc3C2(C)C)Sc2ccccc21` . Its measured absorption maximum is 549

Recorded absorption maximum (compound CN(CCO)c1ccc(/C=C/C2=C(C#N)C(C(C#N)C#N)OC2(C)C)cc1 (stereo not given) ): 595

For record `CCC1(CC)c2cc(C=C(C#N)C#N)ccc2-c2ccc(N(C)C)cc21` the listed absorption maximum is 490

The compound listed as `CC(C)[Si]1(C(C)C)c2cc(C#N)ccc2-c2ccc(N(C)C)cc21` has a reported absorption maximum of 375

For this compound ( COC(=O)C(Cc1ccc2oc(-c3ccc(N(c4ccccc4)c4ccccc4)cc3)nc2c1)NC(=O)OC(C)(C)C (stereo not given) ), measured absorption maximum is 364

###

Assay: solvent given as SMILES
Conditions: in ClCCl
Class (required): determined from absorption maximum; valid ranges are low range: < 400 nm; mid range: ≥ 400 nm and < 500 nm; high range: ≥ 500 nm

COc1ccc(-c2c3ccccc3c(C#Cc3ccccc3)c3cc4cc(C)sc4cc23)cc1
mid range
COc1ccc2cc(C#Cc3ccc([N+](=O)[O-])cc3)ccc2c1
low range

Pick a category. Item: `CCC(CC)COC1=CC2=C3c4cc(OCC(CC)CC)c(-c5cccs5)n4[B-](F)(F)[n+]4nnn(c43)[B-](F)(F)[N+]2=C1c1cccs1` high range

Sort `CCCCCCn1c2c(c3ccccc31)-c1c(c3ccccc3n1CCCCCC)-c1c(c3ccccc3n1CCCCCC)-c1c-2c2ccccc2n1CCCCCC` into one of the categories. low range

Form: Item = `CC(C)(C)c1ccc(C#Cc2cc(C#Cc3ccc(C(C)(C)C)cc3)c(C#Cc3ccc(C(C)(C)C)cc3)c(C#Cc3ccc(C(C)(C)C)cc3)c2C#Cc2ccc(C(C)(C)C)cc2)cc1` ; Class = ? low range

// return the class label for COC(=O)C(Cc1ccc2oc(-c3ccc4c(c3)c3ccccc3n4-c3ccccc3)nc2c1)NC(=O)OC(C)(C)C (stereo not given) low range
